Biological target: SIRT1 (Homo sapiens, UniProt Q96EB6)
Test: Mass spectrometry based assay to identify modulators of SIRT1 activity (deacetylation of p53-based acetylated peptide substrate)
Type: biochemical
Conditions: 10 nM SIRT1, 0.5 μM peptide substrate, 120 μM βNAD+, 25 minutes at 25° C.
From the text: A mass spectrometry based assay was used to identify modulators of SIRT1 activity. The mass spectrometry based assay utilizes a peptide having 20 amino acid residues as follows: Ac-EE-K(biotin)-GQSTSSHSK(Ac)NleSTEG-K(5TMR)-EE-NH2 (SEQ ID NO: 1) wherein K(Ac) is an acetylated lysine residue and Nle is a norleucine. The peptide is labeled with the fluorophore 5TMR (excitation 540 nm/emission 580 nm) at the C-terminus. The sequence of the peptide substrate is based on p53 with several modifications. […]
Measurement name: FOLD ACT. (percent maximum fold activation)

CC(C)N1CCC(Nc2cc(C(=O)Nc3ccccc3-c3nc4cccnc4s3)nc(-c3ccccc3)n2)CC1 | A (Fold activation≧300%)
NCCCCCNc1cc(C(=O)Nc2ccccc2-c2nc3cccnc3s2)nc(-c2ccccc2)n1 | A (Fold activation≧300%)
COCCN(CCOC)c1cc(C(=O)Nc2ccccc2-c2nc3cccnc3s2)nc(-c2ccccc2)c1 | A (Fold activation≧300%)

====

molecular target: SIRT1 (Homo sapiens); experiment: Mass spectrometry based assay to identify modulators of SIRT1 activity (deacetylation of p53-based acetylated peptide substrate); format: biochemical; conditions: SIRT1 activation; 10 nM SIRT1, 0.5 μM peptide substrate, 120 μM βNAD+, 25 minutes at 25° C.
Measurement name: EC1.5

COCCN1CCN(c2cc(C(=O)Nc3ccccc3-c3nc4cccnc4s3)nc(-c3ccccc3)n2)CC1 | A′ (EC1.5<250 nM)
NCCCCCNc1cc(C(=O)Nc2ccccc2-c2nc3cccnc3s2)nc(-c2ccccc2)n1 | A′ (EC1.5<250 nM)

====

molecular target: SIRT1 (Homo sapiens, UniProt Q96EB6); assay: Mass spectrometry based assay to identify modulators of SIRT1 activity (deacetylation of p53-based acetylated peptide substrate); format: biochemical; conditions: SIRT1 activation; 10 nM SIRT1, 0.5 μM peptide substrate, 120 μM βNAD+, 25 minutes at 25° C.
Measurement name: EC1.5

CC(C)N1CCC(Nc2cc(C(=O)Nc3ccccc3-c3nc4cccnc4s3)nc(-c3ccccc3)n2)CC1 [Compound 114] | A′ (EC1.5<250 nM)
O=C(Nc1ccccc1-c1nc2cccnc2s1)c1cc(NC2CCN(c3ccccn3)CC2)nc(-c2ccccc2)n1 [Compound 115] | C (EC1.5>10 uM)
O=C(Nc1ccccc1-c1nc2cccnc2s1)c1cc(NCCCn2ccnc2)cc(-c2ccccc2)n1 [Compound 141] | A′ (EC1.5<250 nM)
O=C(Nc1ccccc1-c1nc2cccnc2s1)c1cc(NCCNc2ccccc2)nc(-c2ccccc2)n1 [Compound 60] | C (EC1.5>10 uM)

====

Molecular target: UniProt:Q96EB6
Sequence (Q96EB6 1-747): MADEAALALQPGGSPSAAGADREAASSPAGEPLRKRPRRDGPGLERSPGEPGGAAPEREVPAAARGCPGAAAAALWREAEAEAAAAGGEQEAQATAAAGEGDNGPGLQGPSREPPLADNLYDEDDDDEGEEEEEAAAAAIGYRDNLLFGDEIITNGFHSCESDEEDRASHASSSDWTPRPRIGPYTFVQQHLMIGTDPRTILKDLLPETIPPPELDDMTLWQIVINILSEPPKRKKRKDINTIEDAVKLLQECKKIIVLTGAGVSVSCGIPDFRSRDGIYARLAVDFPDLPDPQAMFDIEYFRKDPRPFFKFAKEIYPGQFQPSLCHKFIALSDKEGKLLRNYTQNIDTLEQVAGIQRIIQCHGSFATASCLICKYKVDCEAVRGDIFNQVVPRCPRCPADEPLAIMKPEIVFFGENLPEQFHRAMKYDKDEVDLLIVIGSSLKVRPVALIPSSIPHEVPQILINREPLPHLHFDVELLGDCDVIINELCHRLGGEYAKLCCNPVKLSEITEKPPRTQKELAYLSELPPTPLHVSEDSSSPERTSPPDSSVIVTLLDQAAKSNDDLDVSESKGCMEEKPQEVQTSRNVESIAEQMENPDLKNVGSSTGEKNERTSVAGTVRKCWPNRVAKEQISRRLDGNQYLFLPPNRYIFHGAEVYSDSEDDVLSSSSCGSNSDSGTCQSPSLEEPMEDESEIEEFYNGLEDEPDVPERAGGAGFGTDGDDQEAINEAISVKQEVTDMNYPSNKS
Test: Mass spectrometry based assay to identify modulators of SIRT1 activity (deacetylation of p53-based acetylated peptide substrate)
Type: biochemical
Details: SIRT1 activation; 10 nM SIRT1, 0.5 μM peptide substrate, 120 μM βNAD+, 25 minutes at 25° C.
Measurement name: EC1.5

Cl.O=C(Nc1ccccc1-c1nc2cccnc2s1)c1cc(NCCN2CCOCC2)nc(-c2ccccc2)n1 [Compound 61] | A′ (EC1.5<250 nM)
NCCOc1cc(C(=O)Nc2ccccc2-c2nc3cccnc3s2)nc(-c2ccccc2)n1 [Compound 152] | A′ (EC1.5<250 nM)
CNCCN(C)c1cc(C(=O)Nc2ccccc2-c2nc3cccnc3s2)nc(-c2ccccc2)n1 [Compound 147] | A′ (EC1.5<250 nM)
CN(C)CCNc1cc(C(=O)Nc2ccccc2-c2nc3cccnc3s2)nc(-c2ccccc2)c1 [Compound 110] | A′ (EC1.5<250 nM)
COCCN(C)c1cc(C(=O)Nc2ccccc2-c2nc3ccncc3s2)nc(-c2ccccc2)n1 [Compound 29] | A′ (EC1.5<250 nM)

Item O=C(Nc1ccccc1-c1nc2cccnc2s1)c1cc(NC2CCCCC2)nc(-c2ccccc2)n1 [Compound 63] was tested on UniProt:Q96EB6; the reported EC1.5 is C (EC1.5>10 uM)

Item O=C(Nc1ccccc1-c1nc2cccnc2s1)c1cc(OC[C@@H](O)CO)nc(-c2ccccc2)n1 [Compound 108] was tested on UniProt:Q96EB6; the reported EC1.5 is A′ (EC1.5<250 nM)

Item C[C@@H]1CN(CCOc2cc(C(=O)Nc3ccccc3-c3nc4cccnc4s3)nc(-c3ccccc3)c2)C[C@H](C)O1 [Compound 36] was tested on UniProt:Q96EB6; the reported EC1.5 is A′ (EC1.5<250 nM)

Item CS(=O)(=O)N1CCC(Nc2cc(C(=O)Nc3ccccc3-c3nc4cccnc4s3)nc(-c3ccccc3)n2)CC1 [Compound 135] was tested on UniProt:Q96EB6; the reported EC1.5 is A′ (EC1.5<250 nM)

Item O=C(Nc1ccccc1-c1nc2cccnc2s1)c1cc(C#CCO)nc(-c2ccccc2)n1 [Compound 79] was tested on UniProt:Q96EB6; the reported EC1.5 is C (EC1.5>10 uM)

Item CCS(=O)(=O)CCNc1cc(C(=O)Nc2ccccc2-c2nc3cccnc3s2)nc(-c2ccccc2)n1 [Compound 74] was tested on UniProt:Q96EB6; the reported EC1.5 is A′ (EC1.5<250 nM)

Item CC(C)N1CCN(c2cc(C(=O)Nc3ccccc3-c3nc4cccnc4s3)nc(-c3ccccc3)c2)CC1 [Compound 123] was tested on UniProt:Q96EB6; the reported EC1.5 is A′ (EC1.5<250 nM)

Item O=C(Nc1ccccc1-c1nc2cccnc2s1)c1cc(NC(CO)C(=O)O)nc(-c2ccccc2)n1 (stereo not drawn) [Compound 92] was tested on UniProt:Q96EB6; the reported EC1.5 is B (EC1.5>1 and ≦10 uM)

Item CC(C)CNc1cc(C(=O)Nc2ccccc2-c2nc3cccnc3s2)nc(-c2ccccc2)n1 [Compound 19] was tested on UniProt:Q96EB6; the reported EC1.5 is C (EC1.5>10 uM)

Item O=C(Nc1ccccc1-c1nc2cccnc2s1)c1cc(Cl)nc(-c2ccccc2)n1 [Compound 8] was tested on UniProt:Q96EB6; the reported EC1.5 is C (EC1.5>10 uM)

Item COCCN1CCN(CCOc2cc(C(=O)Nc3ccccc3-c3nc4cccnc4s3)nc(-c3ccccc3)c2)CC1 [Compound 12] was tested on UniProt:Q96EB6; the reported EC1.5 is A′ (EC1.5<250 nM)

Item O=C(Nc1ccccc1-c1nc2cccnc2s1)c1cc(CN2CCCC2)nc(-c2ccccc2)n1 [Compound 11] was tested on UniProt:Q96EB6; the reported EC1.5 is B (EC1.5>1 and ≦10 uM)

Item CC(C)(C)N1CCC(Nc2cc(C(=O)Nc3ccccc3-c3nc4cccnc4s3)nc(-c3ccccc3)n2)CC1 [Compound 125] was tested on UniProt:Q96EB6; the reported EC1.5 is A′ (EC1.5<250 nM)

Item O=C(Nc1ccccc1-c1nc2cccnc2s1)c1cc(NCC2CCNCC2)nc(-c2ccccc2)n1 [Compound 82] was tested on UniProt:Q96EB6; the reported EC1.5 is A′ (EC1.5<250 nM)

Item O=C(Nc1ccccc1-c1nc2cccnc2s1)c1cc(NC2CCN(C3CC3)CC2)nc(-c2ccccc2)n1 [Compound 118] was tested on UniProt:Q96EB6; the reported EC1.5 is A′ (EC1.5<250 nM)

Item Cc1ccn(CCNc2cc(C(=O)Nc3ccccc3-c3nc4cccnc4s3)nc(-c3ccccc3)n2)n1 [Compound 78] was tested on UniProt:Q96EB6; the reported EC1.5 is A′ (EC1.5<250 nM)

Item COCCN(C)c1cc(C(=O)Nc2ccccc2-c2nc3cccnc3s2)nc(-c2ccccc2)n1 [Compound 47] was tested on UniProt:Q96EB6; the reported EC1.5 is A′ (EC1.5<250 nM)
